Molecular target: ATP-dependent translocase ABCB1 (Homo sapiens)
Sequence (P08183 whole entry): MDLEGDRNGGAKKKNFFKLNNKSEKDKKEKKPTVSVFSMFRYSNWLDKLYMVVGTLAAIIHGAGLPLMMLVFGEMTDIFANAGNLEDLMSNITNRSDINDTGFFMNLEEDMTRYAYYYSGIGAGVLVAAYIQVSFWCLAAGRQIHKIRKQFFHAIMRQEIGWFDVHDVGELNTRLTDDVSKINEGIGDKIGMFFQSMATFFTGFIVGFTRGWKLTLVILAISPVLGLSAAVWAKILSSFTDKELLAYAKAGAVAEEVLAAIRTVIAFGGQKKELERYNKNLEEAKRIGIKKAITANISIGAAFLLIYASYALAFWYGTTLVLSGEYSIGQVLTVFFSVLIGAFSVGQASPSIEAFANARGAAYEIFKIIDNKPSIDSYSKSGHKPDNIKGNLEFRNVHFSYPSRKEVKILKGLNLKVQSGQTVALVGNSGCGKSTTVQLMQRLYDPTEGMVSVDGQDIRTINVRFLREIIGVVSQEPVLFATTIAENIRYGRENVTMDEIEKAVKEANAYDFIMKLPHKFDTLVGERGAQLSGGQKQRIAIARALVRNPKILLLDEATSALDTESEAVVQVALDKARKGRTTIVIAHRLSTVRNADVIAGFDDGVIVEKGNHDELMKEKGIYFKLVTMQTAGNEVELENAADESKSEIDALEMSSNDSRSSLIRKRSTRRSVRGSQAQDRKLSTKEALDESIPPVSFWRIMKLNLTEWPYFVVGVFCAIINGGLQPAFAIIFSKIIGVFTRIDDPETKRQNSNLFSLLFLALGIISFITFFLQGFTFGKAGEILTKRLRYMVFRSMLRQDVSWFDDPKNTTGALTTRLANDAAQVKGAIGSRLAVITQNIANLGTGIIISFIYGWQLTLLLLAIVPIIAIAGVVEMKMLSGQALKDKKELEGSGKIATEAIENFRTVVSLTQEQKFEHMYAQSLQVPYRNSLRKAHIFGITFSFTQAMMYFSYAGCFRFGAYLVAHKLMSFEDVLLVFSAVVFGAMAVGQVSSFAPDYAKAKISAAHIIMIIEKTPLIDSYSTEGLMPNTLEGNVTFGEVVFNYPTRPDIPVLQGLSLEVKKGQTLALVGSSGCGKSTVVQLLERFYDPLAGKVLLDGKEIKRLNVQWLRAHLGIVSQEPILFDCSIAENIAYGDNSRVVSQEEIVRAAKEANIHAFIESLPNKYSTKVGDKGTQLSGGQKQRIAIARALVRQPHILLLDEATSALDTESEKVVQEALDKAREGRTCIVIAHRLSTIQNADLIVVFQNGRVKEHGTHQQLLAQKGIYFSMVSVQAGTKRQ
Assay: Inhibition of human ABCB1 expressed in mouse L5178 cells assessed as 95% inhibition of cell proliferation at compound-doxorubicin ratio of 20.4:1 after 48 hrs by MTT assay
Assay type: cell-based
Settings: l5178, 48 h
// fractional inhibitory concentration index (FICI) lookup, one value per entry

The cases that follow already have their fractional inhibitory concentration index (FICI) on record.
compound=CC(C)(O)CC[C@H]1OC(C)(C)O[C@]1(C)[C@H]1CC[C@@]2(O)C3=CC(=O)[C@@H]4C[C@@H](O)[C@H]5OC(C)(C)O[C@H]5[C@]4(C)[C@H]3CC[C@]12C result=0.28
compound=CC(C)(O)CC[C@H]1OC(C)(C)O[C@]1(C)[C@H]1CC[C@@]2(O)C3=CC(=O)[C@@H]4C[C@@H](O)[C@@H](O)C[C@]4(C)[C@H]3CC[C@]12C result=0.35
compound=CC(=O)O[C@H]1C[C@@]2(C)[C@@H](C[C@H]1OC(C)=O)C(=O)C=C1[C@@H]2CC[C@]2(C)[C@@H]([C@@](C)(O)[C@@H](CCC(C)(C)OC(C)=O)OC(C)=O)CC[C@@]12O result=0.13

The compound listed as CC(C)CC[C@H](O)[C@](C)(O)[C@H]1CC[C@@]2(O)C3=CC(=O)[C@@H]4C[C@@H](O)[C@@H](O)C[C@]4(C)[C@H]3[C@H](O)C[C@]12C shows fractional inhibitory concentration index (FICI) equal to 1.88

The compound listed as CC(C)(O)CC[C@@H](O)[C@](C)(O)[C@H]1CC[C@@]2(O)C3=CC(=O)[C@]4(O)C[C@@H](O)[C@@H](O)C[C@]4(C)[C@H]3CC[C@]12C shows fractional inhibitory concentration index (FICI) equal to 0.58

The compound listed as CC(C)CC[C@H]1OC(C)(C)O[C@]1(C)[C@H]1CC[C@@]2(O)C3=CC(=O)[C@@H]4C[C@H]5OC(C)(C)O[C@H]5C[C@]4(C)C3=CC[C@]12C shows fractional inhibitory concentration index (FICI) equal to 0.1

The compound listed as CC(C)(O)CC[C@@H](O)[C@](C)(O)[C@H]1CC[C@@]2(O)C3=CC(=O)[C@@H]4C[C@@H](O)[C@@H](O)C[C@]4(C)[C@H]3CC[C@]12C [20-HYDROXYECDYSONE] shows fractional inhibitory concentration index (FICI) equal to 2.04

The compound listed as CC1(CC[C@H]2OC(C)(C)O[C@]2(C)[C@H]2CC[C@@]3(O)C4=CC(=O)[C@@H]5C[C@H]6OC(C)(C)O[C@H]6C[C@]5(C)[C@H]4CC[C@]23C)COC(C)(C)O1 (stereo partly drawn) shows fractional inhibitory concentration index (FICI) equal to 0.12
